# assay: Induction of activation of human CD56+ CD3- NK cells co-cultured with human K562 cells in 1:1 ratio and assessed as increase in TNF-alpha secretion at 10 uM measured by ELISA assay
# Format: functional, Natural killer cell
Kindly supply the reported fold change (FC) values for the records listed here.
A bare number is all that is needed in reply.

# query: fold change (FC) of entry C[C@H](Cc1nncn1C)c1cccc(NC(=O)c2cc(C3CC3)cc(C(F)(F)F)n2)c1 1.01

Which fold change (FC) value is on record for C[C@@H](c1cc2c(c(C(F)(F)F)c1)CN(c1cccc(C3(Cc4nncn4C)COC3)c1)C2=O)N1CC[C@H](F)C1 ? 2.01

For Cn1cnnc1C(F)(F)[C@](C)(F)c1cccc(N2Cc3c(cc(CN4CCC(F)(F)C4)cc3C(F)(F)F)C2=O)c1 , what is its reported fold change (FC)? 2.01

Name the recorded fold change (FC) for C[C@H](Cc1nncn1C)c1ccnc(NC(=O)c2cccc(C(F)(F)F)n2)c1 . 1.01

For the compound shown here, C[C@H](Sc1nncn1C)c1cccc(NC(=O)c2cccc(C(F)(F)F)n2)c1 , give the reported fold change (FC). 1.01

// returns reported fold change (FC) for input C[C@H](Cc1nncn1C)c1cccc(NC(=O)c2cc(C(=O)N3CC[C@H](O)C3)cc(C(F)(F)F)n2)c1 2.01

Would you kindly share the measured fold change (FC) for C[C@H](Cc1nncn1C)c1cccc(NC(=O)c2cccc(CCO)n2)c1 ? 1.01

----------
# assay: Induction of activation of human CD56+ CD3- NK cells co-cultured with human K562 cells in 1:1 ratio and assessed as increase in IFN-gamma secretion at 2.5 uM measured by ELISA assay
# Assay type: functional, Natural killer cell
Give measured fold change (FC) for each item. Keep answers brief.
Just the number, please, no unit after it.

I have this compound here, C[C@@H](Sc1nncn1C)c1cccc(NC(=O)c2cccc(C(F)(F)F)n2)c1 , and I need its recorded fold change (FC). 1.01

Which value of fold change (FC) has been reported for Cc1n[nH]c(C)c1-c1cc2c(c(C(F)(F)F)c1)CN(c1cccc(C3(Cc4nncn4C)COC3)c1)C2=O in the records? 1.01

Any idea what fold change (FC) was measured for Cn1cnnc1C(F)(F)[C@](C)(F)c1cccc(N2Cc3c(cc(C(=O)N4CC[C@H](O)C4)cc3C(F)(F)F)C2=O)c1 ? 1.01

May I ask what fold change (FC) has been recorded for C[C@@H](c1cc2c(c(C(F)(F)F)c1)CN(c1cccc(C3(Cc4nncn4C)COC3)c1)C2=O)N1CC[C@H](F)C1 ? 2.01

Name the reported fold change (FC) value associated with the compound Cn1cnnc1C(F)(F)C(C)(F)c1cccc(N2Cc3c(cc(CN4CC[C@@H](F)C4)cc3C(F)(F)F)C2=O)c1 (single isomer, unassigned) 2.01

----------
# assay: Induction of anti-CD3 antibodies-stimulated human T cell activation at 8 uM assessed fold increase in CD25 expression measured by ELISA assay; further: reference of the scale not given here
# Format: functional, T cell line
measurement label: fold change (FC)

Consider the following illustrative entries.
{"columns": ["structure smiles", "fold change (FC)"],
 "data": [
  ["Cn1cnnc1CC1(c2cccc(NC(=O)c3cc(C4CC4)nc(C(F)(F)F)n3)c2)COC1", ">=1.001"],
  ["C[C@H](Cc1nncn1C)c1cccc(N2Cc3c(cc(CN4CC(F)(F)C4)cc3C(F)(F)F)C2=O)c1", ">=1.001"],
  ["CC(C)Nc1cc([C@H](C)Cc2nncn2C)cc(N2Cc3c(cccc3C(F)(F)F)C2=O)n1", ">=1.001"],
  ["C[C@H](Cc1nncn1C)c1cccc(NC(=O)c2cc(C(=O)N3CC[C@](C)(O)C3)ccn2)c1", "<=0.6"],
  ["Cc1n[nH]c(C)c1-c1cc2c(c(C(F)(F)F)c1)CN(c1cccc(C3(Cc4nncn4C)COC3)c1)C2=O", ">=1.001"]
]}

Recorded fold change (FC) of C[C@H](Cc1nncn1C)c1cccc(N2Cc3c(cc(CN4C[C@@H](F)[C@@H](O)C4)cc3C(F)(F)F)C2=O)c1 , please. >=1.001

Request the reported fold change (FC) associated with C[C@H](Cc1nncn1C)c1cccc(N2Cc3c(cc(CN4CCC(F)(F)C4)cc3C(F)(F)F)C2=O)c1 >=1.001

What measured fold change (FC) goes with C[C@H](Cc1nncn1C)c1cccc(N2Cc3c(cc(C(=O)N4C[C@@H](O)C[C@H]4C)cc3C(F)(F)F)C2=O)c1.O=C(O)C(F)(F)F ? >=1.001

----------
# assay: Induction of anti-CD3 antibodies-stimulated human T cell activation at 1 uM assessed fold increase in CD25 expression measured by ELISA assay; further: reference of the scale not given here
# Assay type: functional, T cell line
Field: fold change (FC). Provide a value for each of the compounds that follow.
Respond using a number only.

Fill blank: measured fold change (FC) of the compound C[C@H](Cc1nncn1C)c1cccc(NC(=O)c2cc(S(C)(=O)=O)cc(C3CC3)n2)c1 is ____. 0.801

I'd like to know its fold change (FC). The compound in question is C[C@@H]1CN(C)CCN1c1cc2c(c(C(F)(F)F)c1)CN(c1cccc([C@@](C)(F)C(F)(F)c3nncn3C)c1)C2=O 0.801

Can you look up the measured fold change (FC) of Cn1cnnc1[C@@H]1C[C@@H]1c1cccc(NC(=O)c2nc3c(C(F)(F)F)cccc3[nH]2)c1 for me? 0.601

Data request, read-out fold change (FC), for CN1C2CCC1CN(c1cc3c(c(C(F)(F)F)c1)CN(c1cccc([C@@](C)(F)C(F)(F)c4nncn4C)c1)C3=O)C2 0.801

Please report the recorded fold change (FC) for Cn1cnnc1CC1(c2cccc(NC(=O)c3csc(C4CC4)n3)c2)COC1 . 0.601

----------
For each of the compounds below, state its fold change (FC).
# assay: Induction of anti-CD3/CD28 antibodies-stimulated human T cell activation at 0.3 uM assessed fold increase in IL-2 secretion measured by ELISA assay
# Type: functional, T cell line
// return a plain number; no unit text

# query: fold change (FC) of entry Cc1cc(C(=O)Nc2cccc([C@@H](C)Cc3nncn3C)c2)nc(C2CC2)n1 1.01

I have this compound here, Cn1cnnc1C(F)(F)[C@](C)(F)c1cccc(N2Cc3c(cc(CN4CC(C#N)C4)cc3C(F)(F)F)C2=O)c1 , and I need its recorded fold change (FC). 1.01

Given the entry Cn1cnnc1OC1(c2cccc(N3Cc4c(cc(CN5CCC(F)CC5)cc4C(F)(F)F)C3=O)c2)COC1 , report its measured fold change (FC). 1.01

Field request: fold change (FC) | item: C[C@H](Cc1nncn1C)c1cccc(N2Cc3c(cc(CN4CC(F)(F)C4)cc3C(F)(F)F)C2=O)c1 5

----------
# assay: Induction of anti-CD3 antibodies-stimulated human T cell activation at 1 uM assessed fold increase in CD25 expression measured by ELISA assay; further: reference of the scale not given here
# Type: functional, T cell line
Kindly state fold change (FC) for each of the entries shown.
Just the number.

// fold change (FC) lookup, key: Cc1cc(C(=O)Nc2cccc(C3(Cc4nncn4C)COC3)c2)n2nccc2n1 0.601

What does the data say about its fold change (FC)? Entry: Cn1cnnc1CC(c1cccc(N2Cc3c(cccc3C(F)(F)F)C2=O)c1)C(F)(F)F (stereo unspecified) 0.801

# input compound: Cn1cnnc1CC(C)(C)c1cccc(NC(=O)c2cccc(C(F)(F)F)n2)c1 ; wanted: its fold change (FC) 0.801

What value of fold change (FC) has been recorded for this entry: Cn1cnnc1CC1(c2cccc(N3Cc4c(cc(C5=CN6CCC5CC6)cc4C(F)(F)F)C3=O)c2)COC1 0.601

Look up fold change (FC) for this compound: C[C@H](Sc1nncn1C)c1cccc(NC(=O)c2cc3cc(OCC(=O)NCCN)ccc3cn2)c1.Cl 0.601

Item under review: Cc1cc2c(c(C3CC3)n1)CN(c1cccc(C3(Cc4nncn4C)COC3)c1)C2=O . Reported fold change (FC)? 0.801

----------
# assay: Induction of allogenic human T cell activation at 3 uM assessed fold increase in cell proliferation
# Format: functional, T cell line
measurement label: fold change (FC)

{"columns": ["structure smiles", "measurement label", "measured result"],
 "data": [
  ["C[C@H](Cc1nncn1C)c1cccc(N2Cc3c(cc(CN4CC[C@](C)(O)C4)cc3C(F)(F)F)C2=O)c1", "fold change (FC)", 2.01],
  ["C[C@H](Cc1nncn1C)c1cccc(N2Cc3c(cc(CN4CC[C@H](F)C4)cc3C(F)(F)F)C2=O)c1", "fold change (FC)", 2.01],
  ["Cn1cnnc1[C@@H]1C[C@@H]1c1cccc(N2Cc3c(cccc3C(F)(F)F)C2=O)c1", "fold change (FC)", "<=2"],
  ["Cn1cnnc1CC1(c2cccc(N3Cc4c(cc(CN5CCC6(CC6)C5)cc4C(F)(F)F)C3=O)c2)COC1", "fold change (FC)", ">3"],
  ["C[C@H](Cc1nncn1C)c1cccc(N2Cc3c(cc(CN4CC(C)(O)C4)cc3C(F)(F)F)C2=O)c1", "fold change (FC)", "<=2"],
  ["Cn1cnnc1CC1(c2cccc(N3Cc4c(cc(CN5CC[C@H](C#N)C5)cc4C(F)(F)F)C3=O)c2)COC1", "fold change (FC)", "<=2"],
  ["C[C@H](Cc1nncn1C)c1cccc(NC(=O)c2cc3cc(N4CCNCC4)ccc3cn2)c1.Cl", "fold change (FC)", "<=2"]
]}

Next compound, fold change (FC) to be filled in.
Name the recorded fold change (FC) for C[C@H](Cc1nncn1C)c1cccc(NC(=O)c2n[nH]c3c2CCC3)c1 . <=2
